Assay: solvent given as SMILES
Conditions: in C1CCOC1
Everything with absorption maximum lower than 400 nm is N; everything else, including exactly 400 nm, is Y.

Could you verify whether the entry CCC1=C(C)C2=C(C)c3c(C)c(-c4csc(N5CCOCC5)n4)c(C)n3[B-](F)(F)[N+]2=C1C shows absorption maximum of no less than 400 nm?
Y

Determine whether measured absorption maximum meets or exceeds 400 nm for Cc1ccc(C)n1-c1ccc(C#N)cc1
N

Does the compound C(=C\c1ccncn1)/c1ccc(-c2ccc(N(c3ccccc3)c3ccccc3)cc2)cc1 have recorded absorption maximum that is 400 nm or more?
N

Is absorption maximum for N#Cc1cc(-n2c3ccccc3c3ccccc32)c(-n2c3ccccc3c3cc(Br)ccc32)cc1C#N at or above 400 nm?
N

Form field: absorption maximum at least 400 nm? Entry: [C-]#[N+]c1ccc(-c2ccc(N)cc2)cc1
N

Textbook exercise: given the entry CC1=C(c2ccc(-c3nc(-c4ccccc4)c(-c4ccccc4)[nH]3)cc2)S[C@]2(C)C1=C1C(=C3c4ccccc4C(C)[C@]32C)C(F)(F)C(F)(F)C1(F)F (some centres undefined) , state whether its absorption maximum is greater than or equal to 400 nm.
Y

Is the recorded value of absorption maximum equal to or greater than 400 nm for this compound? c1cc2ccc1-c1ccc(cc1)-c1ccc(s1)-c1ccc(cc1)-c1ccc(cc1)-c1ccc(s1)-c1ccc(cc1)-c1ccc(cc1)-c1ccc-2s1
N

# bool: absorption maximum of COC(=O)c1ccc(C#Cc2ccc(N(C)C)cc2)cc1 >= 400 nm
N

In plain terms: is recorded absorption maximum at least 400 nm for CCCCCOc1cc2oc(=O)c3c4ccc(N(c5ccccc5)c5ccccc5)cc4c4ccc5cccc6c(c1)c2c3c4c56 ?
Y

Is it the case that CCCCCCCCC1(CCCCCCCC)c2ccccc2-c2ccc(N(c3ccc(-n4c5ccccc5c5ccccc54)cc3)c3ccc4c(c3)C(CCCCCCCC)(CCCCCCCC)c3ccccc3-4)cc21 has absorption maximum reaching or exceeding 400 nm?
N

Determine whether measured absorption maximum meets or exceeds 400 nm for COc1ccc(-c2cc(-c3ccc(C)cc3)c(C#N)c(OC)n2)cc1
N

Hi, just wondering whether c1cc2ccc1-c1ccc(cc1)-c1sc(c3c1OCCO3)-c1ccc(cc1)-c1ccc(cc1)-c1sc(c3c1OCCO3)-c1ccc(cc1)-c1ccc(cc1)-c1sc-2c2c1OCCO2 shows absorption maximum of 400 nm or higher.
N

Is absorption maximum at least 400 nm? Consider CCC/N=C/c1cc2ccc(N(C)C)cc2cc1OC
N

Would you say N#Cc1c(N2CCCCC2)cc(-c2ccc3ccc4cccc5ccc2c3c45)c2c1-c1ccccc1C2 shows absorption maximum at minimum 400 nm?
N

Entry CC1=[N+]2C(=C(c3c4ccccc4cc4ccccc34)c3ccc(C)n3[B-]2(F)F)C=C1 : is its absorption maximum no less than 400 nm?
Y

absorption maximum >= 400 nm for CCC1=C(C)C2=C(c3c(C)cc(C)nc3-c3cccs3)c3c(C)c(CC)c(C)n3[B-](F)(F)[N+]2=C1C ?
Y

Dear colleague, could you confirm whether N#CC(C#N)=Cc1cn(-c2ccccc2)nc1-c1ccc([N+](=O)[O-])cc1 has absorption maximum at or above 400 nm?
N

Hi team, for COC(=O)C1(C(=O)OC)Cc2c(C#Cc3ccc(OC)cc3)c(-c3ccc(OC)cc3)c3c(-c4ccccc4)c(-c4ccccc4)c(-c4ccccc4)c(-c4ccccc4)c3c2C1 , is the recorded absorption maximum at or above 400 nm?
N

Is it the case that CC1=CC(C)=[N+]2C1=C(c1ccc(N(C)C)cc1)c1c(C)cc(C)n1[B-]2(F)F has absorption maximum reaching or exceeding 400 nm?
Y

Entry CN(C)c1ccc(C2=Cc3cc(Cl)nc[n+]3[B-](F)(F)O2)cc1 : is its absorption maximum no less than 400 nm?
Y

Does the compound Cn1cccc1-c1cc(C#N)ccc1C#N have recorded absorption maximum that is 400 nm or more?
N

Could you verify whether the entry CCCCCCc1ccsc1-c1cc2c3cc(-c4sccc4CCCCCC)c4nc(C(F)(F)C(F)(F)C(F)(F)F)nc5c(-c6sccc6CCCCCC)cc(c6cc(-c7sccc7CCCCCC)c7nc(C(F)(F)C(F)(F)C(F)(F)F)nc1c7c26)c3c45 shows absorption maximum of no less than 400 nm?
Y

Quick check, absorption maximum >= 400 nm? C(=C\c1ccccn1)/c1ccc(N(c2ccc(/C=C/c3ccccn3)cc2)c2ccc(-c3nc4ccccc4nc3-c3ccc(N(c4ccc(/C=C/c5ccccn5)cc4)c4ccc(/C=C/c5ccccn5)cc4)cc3)cc2)cc1
N

Does the reported absorption maximum for COc1ccc(/C=C/C(=O)c2ccccc2O)cc1OC fall at or above the 400 nm mark?
N

Check if absorption maximum >= 400 nm (inclusive). Item: O=C1NC(=O)C(c2c[nH]c3ccccc23)=C1c1c[nH]c2ccccc12
Y

Exam item: decide whether the reported absorption maximum for CN(C)c1ccc2nc3c(cc2c1)c(-c1ccccc1)nn3-c1ccccc1 is at least 400 nm.
Y

hey, is absorption maximum for this one >= 400 nm? CCCCCOc1cc2oc(=O)c3c4ccc(N)cc4c4ccc5cccc6c(c1)c2c3c4c56
Y

Hi team, for Cc1ccc(-n2c(-c3ccccc3O)nc(-c3ccccc3O)c2-c2ccccc2O)cc1 , is the recorded absorption maximum at or above 400 nm?
N

----------
Test: solvent given as SMILES
Conditions: in CC#N
Each record is given rule met if its reported absorption maximum is strictly below 400 nm. Records at or above 400 nm are given rule not met.

A record lists O=C(N/N=C/c1ccccc1O)c1ccccc1O . Is its absorption maximum below 400 nm?
rule met

Take the compound N#Cc1cccc(-c2pc3ccccc3s2)c1 (stereo unspecified) and say whether its absorption maximum is less than 400 nm.
rule met

Item Cc1ccc2c(c1)nc1c(=O)n(C)c(=O)nc-1n2C : absorption maximum beneath 400 nm, strictly?
rule not met

hey, is absorption maximum for CC1(C)CC(=O)C2=C(C1)Oc1ccc3ccccc3c1C2c1ccccn1 (stereo unspecified) lower than 400 nm or not?
rule met

Criterion: absorption maximum strictly below 400 nm. Is it met by O=Cc1cc(C=O)c2ccc3c(N4CCCCC4)cc(N4CCCCC4)c4ccc1c2c43 ?
rule not met

Item C1CCN2CCCn3c2c(c2c3=NCCN=2)C1 : absorption maximum beneath 400 nm, strictly?
rule met

Strictly below 400 nm: is that where absorption maximum of CCN(CC)c1ccc2cc(/C=C/c3cccc[n+]3CCCS(=O)(=O)[O-])c(=O)oc2c1 sits?
rule not met

absorption maximum under 400 nm? Item: CN(C)c1ccc2c(c1)C(=O)c1ccccc1-2
rule not met

Is absorption maximum of CN(C)c1ccc2c3c(ccc2c1)C(=O)CCC3 strictly below 400 nm?
rule met

Dear colleague, could you confirm whether absorption maximum of CCN(CC)c1ccc2cc(/C=C/c3ccc([N+](=O)[O-])cc3)c(=O)oc2c1 falls below 400 nm? Thanks.
rule not met

----------
Test: solvent given as SMILES
Conditions: in ClCCl
Would you kindly list absorption maximum for each of these compounds?
Your answer should be a plain number; it is taken to be in nm.

Identify measured absorption maximum corresponding to COC(=O)/C=C/C1=CC2=C(c3c(C)cc(C)cc3C)c3cc(/C=C/C(=O)OC)cn3[B-](F)(F)[N+]2=C1
577

Report absorption maximum, nothing else, for this compound: C(=C\c1ncnc2ccccc12)/c1ccc(-c2ccc(N(c3ccccc3)c3ccccc3)cc2)cc1
402

Answer with reported absorption maximum of CC1(C)CC(/C=C/c2ccc(-n3ccnc3)cc2)=CC(=C(C#N)C#N)C1
393

Could you please provide reported absorption maximum for CN(C)c1nc(N(C)C)c2nc(C#N)n(Cc3ccccc3)c2n1 ? Thanks!
348

Note down absorption maximum recorded for CCc1c(C)[nH]c(C2=[N+]3C(=Cc4c(C)cc(C)n4[B-]3(F)F)c3ccccc32)c1C
616

For the compound Cc1cc2cc(C)c3c4ccccc4[nH]c3c2s1 , give its reported absorption maximum.
312

Dear colleague, please send me the reported absorption maximum for CN(C)c1ccc2c3c(ccc2c1)C(=O)CCC3 when you can.
358

Name the recorded absorption maximum of the item C(=C\c1ccc(-c2ccccc2)cc1)/c1ccc(Oc2ccc3ccccc3c2-c2c(Oc3ccc(/C=C/c4ccc(-c5ccccc5)cc4)cc3)ccc3ccccc23)cc1 in your answer.
328

Supply measured absorption maximum of C[Si]1(C)O[Si](C)(C)c2cc3nc4ccccc4c(-c4ccccc4)c3cc2[Si](C)(C)O1 in your reply.
368

In one line, give reported absorption maximum of the entry CCCCCCC1(CCCCCC)c2cc(-c3ccc(-c4ccc(-c5ccc(-c6ccc7c(c6)C(CCCCCC)(CCCCCC)c6cc(-n8c9ccccc9c9ccccc98)ccc6-7)s5)c5nsnc45)s3)ccc2-c2ccc(-n3c4ccccc4c4ccccc43)cc21 .
513

Tell us which absorption maximum value is on record for COc1c2ccccc2c(OC)c2c1c1ccccc1n2C
409

Tell us which absorption maximum value is on record for CC1=CC(C)=[N+]2C1=C(c1c(-c3ccccn3)nc3ccccn13)c1c(C)cc(C)n1[B-]2(F)F
518

Name the recorded absorption maximum of the compound listed here: CCN(CC)c1ccc2cc(/C=C/C3=C4CC/C(=C\c5cc6ccc(N(CC)CC)cc6oc5=O)C4=[O+][B-](F)(F)O3)c(=O)oc2c1
653

Supply absorption maximum value. Item: O=C(O)c1c2ccccc2nc2ccccc12
362

Given the compound O=Cc1ccc2ccc3cccc4ccc1c2c34 , write its reported absorption maximum.
392

Please list absorption maximum recorded for the compound CN(C)c1ccc(C#Cc2cc(C#Cc3ccc(C(F)(F)F)cc3)c3ccc4c(C#Cc5ccc(C(F)(F)F)cc5)cc(C#Cc5ccc(N(C)C)cc5)c5ccc2c3c54)cc1
506

Quick one: give measured absorption maximum for CCCCCCn1c(=O)c2c3[nH]c4ccccc4oc3c3c(=O)n(CCCCCC)c(=O)c3c2c1=O
454

Look up and state reported absorption maximum for Cc1cc(O)c(C(=O)/C=C/c2ccc([N+](=O)[O-])cc2)c(=O)o1
361

For the compound COC(=O)c1cc(=O)n(C)c2cc(-c3ccc4c(c3)OCCO4)sc12 , give its reported absorption maximum.
402

State, in one line, measured absorption maximum of CC(C)[Si]1(C(C)C)c2cc(C#N)ccc2-c2ccc(N(c3ccccc3)c3ccccc3)cc21
388

Output absorption maximum of CC1=CC(C)=[N+]2C1=Cc1c(C)cc(C)n1[B-]2(F)F
506

Complete the entry with absorption maximum for CCCCN(CCCC)c1ccc(C#Cc2cc(C#Cc3ccc(C#N)cc3)c(C#Cc3ccc(C#N)cc3)cc2C#Cc2ccc(N(CCCC)CCCC)cc2)cc1
416

Give me measured absorption maximum, please, for this compound: O=[N+]([O-])c1ccc(-c2nc(/C=C/c3ccc(Cl)cc3)c(/C=C/c3ccc(Cl)cc3)[nH]2)cc1
425

Give the reported value of absorption maximum for this record: COc1cc2c(cc1OC)C1=C[C@H](c3ccccc3)C3(C(C#N)=C(C#N)N1CC2)c1ccccc1-c1ccccc13
310

Please list absorption maximum recorded for the compound CCCCCCOc1ccc(-c2ccc(/C=C/c3cc(/C=C/c4ccc(-c5ccc(OCCCCCC)cc5)cc4)ncn3)cc2)cc1
373

For the compound COc1ccc(-c2ccc3c(c2)[Si](C)(C)c2cc(-c4ccc(OC)cc4)ccc2C=C3)cc1 , give its reported absorption maximum.
385

For the compound Cc1cc(O)c(C(=O)/C=C/c2cccc(O)c2)c(=O)o1 , give its reported absorption maximum.
374

Report absorption maximum for CC(C)(C)c1ccc2c(c1)c1cc(C(C)(C)C)ccc1n2-c1ccc(C#Cc2ccc3c4ccc(C#Cc5ccc(/C=C(/C#N)C(=O)O)cc5)cc4n(-c4ccc(C(F)(F)F)cc4)c3c2)cc1
386

Give me measured absorption maximum, please, for this compound: FC(F)(F)c1ccc(/C=C/c2nc(/C=C/c3ccc(N(c4ccccc4)c4ccccc4)cc3)cc(/C=C/c3ccc(N(c4ccccc4)c4ccccc4)cc3)n2)cc1
430

Return absorption maximum for the following compound: CC(C)c1ccc2ccc3cccc4ccc1c2c34
340

Kindly indicate its recorded absorption maximum. Item: COc1cc(OC)cc(C2=[O+][B-](F)(F)OC(c3ccccc3)=C2)c1
369

For the compound F[B-]1(F)n2c(c3cccc4cccc2c43)=Nc2ccc3ccccc3[n+]21 , report absorption maximum.
455

Find the measured absorption maximum of N#Cc1ccc(C2=Cc3cc4ccccc4cc3P2(=O)c2ccccc2)cc1 (centres undefined) and report it.
391

// fetch absorption maximum given entry CCn1c2ccccc2c2cc(/C=C/c3cc(/C=C/c4ccc5c(c4)c4ccccc4n5CC)nc(SC)n3)ccc21
409
